Test: Retention time in albino Wistar Hannover rat at 5 mg/kg, iv
Type: ADME, organism-based
Set-up: dose 5 mg/kg, route intravenous
Conditions: in vivo
Measurement kind: Retention time (h)
Use h as the unit, but write only the number.

Could you share which Retention time value was measured for CN(CCc1cc(C(F)(F)F)cc(C(F)(F)F)c1)C(=O)[C@H](c1ccccc1)N1CCN(CC2CC2)CC1.Cl.O ?
0.358
